Known MIC P. aeruginosa of a selection of molecules
- Tested on: P. aeruginosa (ATCC9027; Pseudomonas aeruginosa)
- protocol_details: Minimum growth inhibition concentration (MIC)
- Type: cell-based
- cond: 24 hours
experimental_readout: MIC P. aeruginosa

| molecule | result |
| --- | --- |
| Cl.O=C(O)[C@H](Cc1c[nH]cn1)NCc1ccc(O)c(O)c1 [Test group 8] | >800 µg/mL |
| Cl.OCC1OC(O)C(NCc2ccc(O)c(O)c2O)C(O)C1O (centres unmarked) [Test group 6] | 400 µg/mL |
| Cl.OCC1OC(O)C(NCc2ccc(O)c(O)c2)C(O)C1O (centres unmarked) [Test group 5] | >800 µg/mL |
| Cl.O=C(O)c1cc(CNC2C(O)OC(CO)C(O)C2O)ccc1O (centres unmarked) [Test group 7] | >800 µg/mL |
| Cl.O=C(O)c1cc(CN[C@@H](Cc2c[nH]cn2)C(=O)O)ccc1O [Test group 9] | >500 µg/mL |
